Molecular target: recombinant human p38α (Homo sapiens)
Experiment: Purified and activated recombinant human p38α HTRF assay
Conditions: 1 nM p38α, 50 μM ATP, GST-ATF2 substrate, read-out: p38a IC50
Catalogue of compounds with associated pIC50
Note on pIC50: it is the negative log10 of concentration, concentration in mol/L.

smiles-str | pIC50
CNC(=O)c1ccc(C)c(-c2cc3cnnc(-c4ccc(F)cc4F)c3n(C)c2=O)c1 | 8.57
Cc1c(F)cc(C(=O)NC2CC2)cc1-c1cc2cnnc(-c3ccccc3Cl)c2n(C)c1=O | 8.62
Cc1ccc(C(N)=O)cc1-c1cc2cnnc(-c3ccc(F)cc3F)c2n(C)c1=O | 8.52

Query :: Item under review: "Cc1c(F)cc(C(=O)NC2CC2)cc1-c1cc2cnnc(-c3ccccc3C(F)(F)F)c2n(C)c1=O" . Reported pIC50?
Result :: 8.62

----------
Target: recombinant human p38α (Homo sapiens)
Test: Purified and activated recombinant human p38α HTRF assay
Conditions: 1 nM p38α, 50 μM ATP, GST-ATF2 substrate, read-out: p38a IC50
Checkbox rule: IC50 lower than 2 nM = rule met; IC50 not lower than 2 nM = rule not met.

Reference set, count: 7
smiles-str | class-assignment
CCn1c(=O)c(-c2cc(C(=O)NC3CC3)ccc2C)cc2cnnc(-c3ccccc3Cl)c21 | rule met
Cc1ccc(C(=O)Nc2ccon2)cc1-c1cc2cnnc(-c3ccc(F)cc3Cl)c2n(C)c1=O | rule met
Cc1ccc(C(=O)Nc2nccs2)cc1-c1cc2cnnc(-c3ccc(F)cc3F)c2n(C)c1=O | rule met
Cc1cc(F)ccc1-c1nncc2cc(-c3cc(C(=O)NC4CC4)cc(F)c3C)c(=O)n(C)c12 | rule not met
Cc1ccc(C(=O)NC2(C)CC2)cc1-c1cc2cnnc(-c3ccc(F)cc3Cl)c2n(C)c1=O | rule not met
CCn1c(=O)c(-c2cc(C(=O)NC3CC3)ccc2C)cc2cnnc(-c3ccc(F)cc3F)c21 | rule met
Cc1ccc(C(=O)NC2CC2)cc1-c1cc2cnnc(-c3ccc(F)cc3F)c2n(C)c1=O | rule not met

From here, focus on the item given below.
Query :: Please let me know if "Cc1cnc(C(=O)NC2CC2)cc1-c1cc2cnnc(-c3ccc(F)cc3F)c2n(C)c1=O" shows IC50 below 2 nM.
Result :: rule not met

----------
Target: recombinant human p38α (Homo sapiens, UniProt Q16539)
Sequence (Q16539 whole entry): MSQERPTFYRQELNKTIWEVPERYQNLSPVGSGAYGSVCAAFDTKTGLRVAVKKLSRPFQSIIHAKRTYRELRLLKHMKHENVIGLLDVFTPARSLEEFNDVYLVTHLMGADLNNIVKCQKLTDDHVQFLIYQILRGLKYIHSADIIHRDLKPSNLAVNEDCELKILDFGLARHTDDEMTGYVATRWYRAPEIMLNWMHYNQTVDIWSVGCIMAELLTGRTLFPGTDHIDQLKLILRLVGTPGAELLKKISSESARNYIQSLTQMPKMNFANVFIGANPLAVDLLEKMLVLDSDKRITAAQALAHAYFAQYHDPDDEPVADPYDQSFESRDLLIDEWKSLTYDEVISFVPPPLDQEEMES
Test: Purified and activated recombinant human p38α HTRF assay
Assay type: biochemical
Details: 1 nM p38α, 50 μM ATP, GST-ATF2 substrate, read-out: p38a IC50
Experimental: Purified and Activated Recombinant Human p38α Assay Kinase Reaction Buffer: […] HTRF Detection Buffer: […] Serial Dilution of Compounds: […] […] In the absence of substrate, the background was measured as LO control. […] After 60 minutes incubation at room temperature, the assay plate was read in a Discovery Plate Reader. […] All results were expressed as the mean±the standard error of the mean. […]
Here the recorded IC50 is given for each entry.
A number alone suffices; assume nM.

Query :: Consider the compound shown here: "Cc1ccc(C(=O)NC2CC2)cc1-c1cc2cnnc(-c3ccc(F)cc3Cl)c2n(C)c1=O" What is its recorded IC50?
Result :: 2.8

Query :: Please look up its IC50: "Cc1c(F)cc(C(=O)NC2CC2)cc1-c1cc2cnnc(-c3cc(F)ccc3Cl)c2n(C)c1=O"
Result :: 1.6

Query :: Request the reported IC50 associated with "Cc1ccccc1-c1nncc2cc(-c3cc(C(=O)NC4CC4)cc(F)c3C)c(=O)n(C)c12"
Result :: 1.5

Query :: // returns reported IC50 for input "Cc1ccc(C(=O)NC2(C)CC2)cc1-c1cc2cnnc(-c3ccc(F)cc3F)c2n(C)c1=O"
Result :: 3

These data points were gathered from patent US8455495B2.
